# Target under test: T1, HLA-B*44:05 (human)
# T1 construct: also called peptide-receptive MHC class I molecule
# Method summary: UV peptide exchange, anti-b2m ELISA
Value type: peptide exchange yield

Below, each entry is followed by its recorded peptide exchange yield result.
SLAELIAKDW    20 to 50%
TEIMEKTTL    50 to 75%
LEQASRIWSW    > 75%
NENLDYAIL    > 75%

# map each binder to its peptide exchange yield
1. SEFLLRIF
2. AEIIRYIF
3. NEVKEIKGY
4. TEFHMQFSY
5. SEATHIITI
6. REILHAQTL
7. ELVHMINW
8. AEAMGKFKQCF

1. 20 to 50%
2. 10 to 20%
3. 50 to 75%
4. > 75%
5. 50 to 75%
6. 50 to 75%
7. 20 to 50%
8. 50 to 75%

# map each binder to its peptide exchange yield
1. EENTGKTYF
2. RELPLVLLA
3. EECGKAFRVF
4. EEYQDSFERY
5. REYQEVMNSKL
6. AEGEPPPALAW
7. TEDARHPESW

1: 50 to 75%; 2: 20 to 50%; 3: 50 to 75%; 4: 20 to 50%; 5: 50 to 75%; 6: 50 to 75%; 7: > 75%

# map each binder to its peptide exchange yield
1. DEMENLLTY
2. AEDFVWAQW
3. AERIMFSDL
4. TEFHGGLHY
5. AELEGALQKA

["> 75%", "> 75%", "> 75%", "50 to 75%", "20 to 50%"]
